system: Candida albicans; experiment: Antifungal activity against Candida albicans SC5314 assessed as reduction in fungal growth incubated for 24 hrs by CLSI based microdilution analysis; format: functional
MIC80 less than 0.1 µg/mL is Condition met; MIC80 greater than or equal to 0.1 µg/mL is Condition not met.

compound="O=[N+]([O-])c1ccc2c(ccn2CCCN2CCN(CC(O)(Cn3cncn3)c3ccc(F)cc3F)CC2)c1 (centres undefined)" study_system="Candida albicans" label_value="Condition met"
compound="OC(CN1CCN(CCc2cccc3ccccc23)CC1)(Cn1cncn1)c1ccc(F)cc1F (centres undefined)" study_system="Candida albicans" label_value="Condition not met"
compound="OC(CN1CCN(CCCn2ccc3ccccc32)CC1)(Cn1cncn1)c1ccc(F)cc1F (centres undefined)" study_system="Candida albicans" label_value="Condition met"
compound="Cc1ccc2oc(=O)c(C(=O)N3CCN(CC(O)(Cn4cncn4)c4ccc(F)cc4F)CC3)cc2c1 (centres undefined)" study_system="Candida albicans" label_value="Condition not met"
compound="OC(CN1CCN(CCc2ccccc2)CC1)(Cn1cncn1)c1ccc(F)cc1F (centres undefined)" study_system="Candida albicans" label_value="Condition not met"
compound="O=C(c1ccc2c(c1)OCCO2)N1CCN(CC(O)(Cn2cncn2)c2ccc(F)cc2F)CC1 (centres undefined)" study_system="Candida albicans" label_value="Condition not met"
compound="OC(CN1CCN(CCn2ncc3ccccc32)CC1)(Cn1cncn1)c1ccc(F)cc1F (centres undefined)" study_system="Candida albicans" label_value="Condition met"
compound="OC(CN1CCN(CCCCCCCCCCn2ccc3cc(Cl)ccc32)CC1)(Cn1cncn1)c1ccc(F)cc1F (centres undefined)" study_system="Candida albicans" label_value="Condition not met"
compound="OC(CN1CCN(CCCCCn2ccc3ccc(F)cc32)CC1)(Cn1cncn1)c1ccc(F)cc1F (centres undefined)" study_system="Candida albicans" label_value="Condition not met"

---

tested on: Aspergillus fumigatus; test: Antifungal activity against Aspergillus fumigatus CGMCC3 7795 assessed as reduction in fungal growth incubated for 48 hrs by CLSI based microdilution analysis; assay type: functional
Reported Property: log10 of MIC80 (log10 of the value in µg/mL)

molecule="OC(CN1CCN(CCCCn2ccc3cc(Br)ccc32)CC1)(Cn1cncn1)c1ccc(F)cc1F (stereo unspecified)" reported_property="log10 of MIC80" number=0.10
molecule="OC(CN1CCN(CCCn2ccc3ccccc32)CC1)(Cn1cncn1)c1ccc(F)cc1F (stereo unspecified)" reported_property="log10 of MIC80" number=1.00
molecule="O=[N+]([O-])c1ccc2c(ccn2CCCN2CCN(CC(O)(Cn3cncn3)c3ccc(F)cc3F)CC2)c1 (stereo unspecified)" reported_property="log10 of MIC80" number=0.10
molecule="OC(CN1CCN(CCn2ccc3cc(Cl)c(Cl)cc32)CC1)(Cn1cncn1)c1ccc(F)cc1F (stereo unspecified)" reported_property="log10 of MIC80" number=0.70
molecule=O[C@@](CN1CCN(CCn2ccc3cc(Br)ccc32)CC1)(Cn1cncn1)c1ccc(F)cc1F reported_property="log10 of MIC80" number=-0.20
molecule=C[C@@H](c1ncncc1F)[C@](O)(Cn1cncn1)c1ccc(F)cc1F reported_property="log10 of MIC80" number=-0.51
molecule="OC(CN1CCN(CCCn2ccc3ccc(Br)cc32)CC1)(Cn1cncn1)c1ccc(F)cc1F (stereo unspecified)" reported_property="log10 of MIC80" number=0.10
molecule="OC(CN1CCN(CCCn2ccc3cc(Cl)ccc32)CC1)(Cn1cncn1)c1ccc(F)cc1F (stereo unspecified)" reported_property="log10 of MIC80" number=0.70
molecule="OC(CN1CCN(CCCn2ccc3ccc(Cl)cc32)CC1)(Cn1cncn1)c1ccc(F)cc1F (stereo unspecified)" reported_property="log10 of MIC80" number=0.70
molecule="O=[N+]([O-])c1ccc2c(ccn2CCN2CCN(CC(O)(Cn3cncn3)c3ccc(F)cc3F)CC2)c1 (stereo unspecified)" reported_property="log10 of MIC80" number=0.10
molecule="COc1ccc2c(ccn2CCCN2CCN(CC(O)(Cn3cncn3)c3ccc(F)cc3F)CC2)c1 (stereo unspecified)" reported_property="log10 of MIC80" number=0.70
molecule="Cc1ccc2c(ccn2CCCN2CCN(CC(O)(Cn3cncn3)c3ccc(F)cc3F)CC2)c1 (stereo unspecified)" reported_property="log10 of MIC80" number=0.70
molecule="OC(CN1CCN(CCCn2ccc3cc(Br)ccc32)CC1)(Cn1cncn1)c1ccc(F)cc1F (stereo unspecified)" reported_property="log10 of MIC80" number=-0.20
molecule="OC(CN1CCN(CCn2ccc3cc(Br)ccc32)CC1)(Cn1cncn1)c1ccc(F)cc1F (stereo unspecified)" reported_property="log10 of MIC80" number=-0.20
molecule="CCC(C)n1ncn(-c2ccc(N3CCN(c4ccc(OCC5COC(Cn6cncn6)(c6ccc(Cl)cc6Cl)O5)cc4)CC3)cc2)c1=O (stereo unspecified)" reported_property="log10 of MIC80" number=-0.51

---

In this section, each of the molecules is paired with its reported MIC80.
tested on: Candida albicans; test: Antifungal activity against fluconazole-resistant Candida albicans 112869 assessed as inhibition of fungal growth measured for 24 hrs by CLSI based microdilution analysis; assay type: functional
Reported Property: MIC80 (mg/L)

molecule="OC(CN1CCN(CCCn2ccc3ccccc32)CC1)(Cn1cncn1)c1ccc(F)cc1F (centres undefined)" sign== number=0.062
molecule=OC(Cn1cncn1)(Cn1cncn1)c1ccc(F)cc1F sign=> number=100
molecule="CCC(C)n1ncn(-c2ccc(N3CCN(c4ccc(OCC5COC(Cn6cncn6)(c6ccc(Cl)cc6Cl)O5)cc4)CC3)cc2)c1=O (centres undefined)" sign=> number=100
molecule="OC(CN1CCN(CCCn2ccc3ccc(Br)cc32)CC1)(Cn1cncn1)c1ccc(F)cc1F (centres undefined)" sign== number=0.5

---

tested on: CYP3A4; test: Selectivity index, ratio of MIC80 for antifungal activity against Candida albicans to IC50 for inhibition of CYP3A4 in human liver microsomes; assay type: toxicity; details: read-out: Selectivity Index
Reported Property: selectivity ratio

compound_structure_string=OC(Cn1cncn1)(Cn1cncn1)c1ccc(F)cc1F number=25
compound_structure_string=O[C@@](CN1CCN(CCn2ccc3cc(Br)ccc32)CC1)(Cn1cncn1)c1ccc(F)cc1F number=100

---

In this section, each of the molecules is paired with its reported MIC80.
tested on: Candida albicans; test: Antifungal activity against fluconazole-resistant Candida albicans 112869 assessed as inhibition of fungal growth measured for 24 hrs by CLSI based microdilution analysis; type: functional
Reported Property: MIC80 (µg/mL)

molecule=O[C@@](CN1CCN(CCn2ccc3cc(Br)ccc32)CC1)(Cn1cncn1)c1ccc(F)cc1F reported_property=MIC80 sign== number=0.031
molecule="OC(CN1CCN(CCn2ccc3cc(Br)ccc32)CC1)(Cn1cncn1)c1ccc(F)cc1F (configuration not stated)" reported_property=MIC80 sign== number=0.062
molecule=C[C@@H](c1ncncc1F)[C@](O)(Cn1cncn1)c1ccc(F)cc1F reported_property=MIC80 sign=> number=100
molecule="O=[N+]([O-])c1ccc2c(ccn2CCN2CCN(CC(O)(Cn3cncn3)c3ccc(F)cc3F)CC2)c1 (configuration not stated)" reported_property=MIC80 sign== number=0.062
molecule="COc1ccc2c(ccn2CCCN2CCN(CC(O)(Cn3cncn3)c3ccc(F)cc3F)CC2)c1 (configuration not stated)" reported_property=MIC80 sign== number=0.25
molecule="OC(CN1CCN(CCCCn2ccc3cc(Br)ccc32)CC1)(Cn1cncn1)c1ccc(F)cc1F (configuration not stated)" reported_property=MIC80 sign== number=0.25
molecule="OC(CN1CCN(CCCn2ccc3cc(Cl)ccc32)CC1)(Cn1cncn1)c1ccc(F)cc1F (configuration not stated)" reported_property=MIC80 sign== number=0.062
molecule="OC(CN1CCN(CCCn2ccc3cc(Br)ccc32)CC1)(Cn1cncn1)c1ccc(F)cc1F (configuration not stated)" reported_property=MIC80 sign== number=0.125
molecule="Cc1ccc2c(ccn2CCCN2CCN(CC(O)(Cn3cncn3)c3ccc(F)cc3F)CC2)c1 (configuration not stated)" reported_property=MIC80 sign== number=0.25
molecule="OC(CN1CCN(CCn2ccc3cc(Cl)c(Cl)cc32)CC1)(Cn1cncn1)c1ccc(F)cc1F (configuration not stated)" reported_property=MIC80 sign== number=0.25
molecule="OC(CN1CCN(CCCn2ccc3ccc(Cl)cc32)CC1)(Cn1cncn1)c1ccc(F)cc1F (configuration not stated)" reported_property=MIC80 sign== number=0.25
molecule="O=[N+]([O-])c1ccc2c(ccn2CCCN2CCN(CC(O)(Cn3cncn3)c3ccc(F)cc3F)CC2)c1 (configuration not stated)" reported_property=MIC80 sign== number=0.062

---

test system: Candida albicans; assay: Antifungal activity against Candida albicans SC5314 assessed as reduction in fungal growth incubated for 24 hrs by CLSI based microdilution analysis; format: functional
Reported Property: MIC80

molecule=O[C@](CN1CCN(CCn2ncc3ccccc32)CC1)(Cn1cncn1)c1ccc(F)cc1F result="50 µg/mL"
molecule="Cc1ccc(S(=O)(=O)N2CCN(CC(O)(Cn3cncn3)c3ccc(F)cc3F)CC2)cc1 (stereo not given)" result="0.125 µg/mL"
molecule="OC(CN1CCN(CCCn2ccc3cc(Br)ccc32)CC1)(Cn1cncn1)c1ccc(F)cc1F (stereo not given)" result="0.031 µg/mL"
molecule="OC(Cn1cncn1)(Cn1cncn1)c1ccc(F)cc1F [FLUCONAZOLE]" result="0.5 µg/mL"
molecule=O[C@@](CN1CCN(CCn2ncc3ccccc32)CC1)(Cn1cncn1)c1ccc(F)cc1F result="0.031 µg/mL"
